# Percent Effect per entry
Test system: Mycobacterium tuberculosis
Assay: Cornell - Phenotypic assay to identify agents that inhibit growth of Mycobacterium tuberculosis
Assay type: functional
Parameters: scale not given: direction of the effect not stated beside the values
Settings: 10 mM as filed; unlikely as a test dose
Screen size: about 53,000 compounds; about 900 (1.7%) showed an effect of 50% or more. The sample as a whole holds a higher share of strong results than the screen did.
Measurement Label: Percent Effect (%)

* CC(C)Cn1ccc2c(NC(=O)c3n[nH]c4c3CCC4)cccc21 | 50.74
* Cn1c(CN2CCN(CC3CCCO3)CC2)nc2ccccc21 (stereo not given) | 22.41
* COCCn1ccc2c(NC(=O)C(C)C)cccc21 | 18.08
* Nc1cc(-c2nccnc2N2CCCC2)c2cc[nH]c2n1 | -1.136
* CCCc1ccc(N2CCN(Cc3nc4ccccc4n3C)CC2)cc1 | -0.4475
* CCNC(=O)N1CCN(c2nc3ccccc3n2C)CC1 | 17.71
* Cn1cccc1C(=O)N1CCC2(CC1)COC(COc1ccccn1)C2.O=C(O)C(F)(F)F (stereo not given) | 9.973
* Cc1cc(C)n(C2CCN(Cc3nc4ccccc4n3C)CC2)n1 | 18.24
* CC(C)n1ccc2c(NC(=O)c3n[nH]c4c3CCC4)cccc21 | 48.39
* COCCn1ccc2c(NC(=O)c3n[nH]c4c3CCCC4)cccc21 | 70.2

The reported numbers originate from ChEMBL document CHEMBL3988442.
